- procedure-text: Biodistribution of ^111In-labelled fragments in CD1 nu/nu mice without tumours
- Assay type: in vivo, mouse
- particulars: CD1 nu/nu, mouse, blood, iv, 100 kBq, total radioactivity, ^111In-labelled fragment ~100 kBq i.v. tail vein, mice without tumours, after 4 h; read-out: Biodistribution of fragment, Blood
Where a SMILES comes first, the peptide text is derived from it. The star is where a group is joined. NODAGA = O=C(O)CN1CCN(CC(=O)O)CCN(C(CCC(=O)*)C(=O)O)CC1
Entries and their tissue uptake at 4 h

{"molecule": "NC(=O)[C@H](CCCCNC(=O)CCC(C(=O)O)N1CCN(CC(=O)O)CCN(CC(=O)O)CC1)NC(=O)[C@H](CO)NC(=O)[C@@H]1CCCN1C(=O)[C@@H]1CCCN1C(=O)[C@@H]1CCCN1C(=O)[C@H](CCC(=O)O)NC(=O)[C@@H](N)CC(=O)O (some centres unmarked) [CL3-F1] (H-DEPPPSK(NODAGA)-NH2)", "tissue uptake at 4 h": "0.01 %ID/g"}

Here is another molecule to look at.
Which tissue uptake at 4 h is reported for this molecule? CSCC[C@H](NC(=O)[C@H](Cc1ccc(O)cc1)NC(=O)[C@@H](N)CC(=O)O)C(=O)NCC(=O)N[C@@H](Cc1c[nH]c2ccccc12)C(=O)N[C@@H](CCSC)C(=O)N[C@@H](CC(=O)O)C(=O)N[C@@H](Cc1ccccc1)C(=O)N[C@@H](CCCCNC(=O)CCC(C(=O)O)N1CCN(CC(=O)O)CCN(CC(=O)O)CC1)C(N)=O (some centres unmarked)
0.02 %ID/g

----------
- procedure-text: Biodistribution of ^111In-labelled fragments in CD1 nu/nu mice without tumours
- Assay type: in vivo, mouse
- particulars: CD1 nu/nu, mouse, in vivo, iv, 100 kBq, total radioactivity, Biodistribution of fragment, Spleen
Where a SMILES comes first, the peptide text is derived from it. The star is where a group is joined. NODAGA = O=C(O)CN1CCN(CC(=O)O)CCN(C(CCC(=O)*)C(=O)O)CC1
reported-endpoint: tissue uptake at 4 h (%ID/g)
Give the number; %ID/g is assumed, so skip it.

Entry NC(=O)[C@@H](N)CCCCNC(=O)CCC(C(=O)O)N1CCN(CC(=O)O)CCN(CC(=O)O)CC1 (some centres unmarked) : reported tissue uptake at 4 h = ?
0.03

Please look up its tissue uptake at 4 h: NC(=O)[C@H](CCCCNC(=O)CCC(C(=O)O)N1CCN(CC(=O)O)CCN(CC(=O)O)CC1)NC(=O)[C@H](CO)NC(=O)[C@@H]1CCCN1C(=O)[C@@H]1CCCN1C(=O)[C@@H]1CCCN1C(=O)[C@@H](N)CCC(=O)O (some centres unmarked) [CL3-F2] (H-EPPPSK(NODAGA)-NH2)
0.03

GET /values?readout=tissue uptake at 4 h&item= NC(=O)[C@H](CCCCNC(=O)CCC(C(=O)O)N1CCN(CC(=O)O)CCN(CC(=O)O)CC1)NC(=O)[C@H](Cc1ccccc1)NC(=O)[C@@H](N)CC(=O)O (some centres unmarked)
0.04

What does the record list as tissue uptake at 4 h for CC(C)[C@H](NC(=O)[C@H](C)NC(=O)[C@@H](N)CCC(=O)O)C(=O)N[C@@H](CCCCNC(=O)CCC(C(=O)O)N1CCN(CC(=O)O)CCN(CC(=O)O)CC1)C(N)=O (some centres unmarked) [CL1-F2] (H-EAVK(NODAGA)-NH2) ?
0.03

// tissue uptake at 4 h lookup, key: CC(C)[C@H](NC(=O)[C@H](C)NC(=O)[C@H](CCC(=O)O)NC(=O)[C@@H](N)CCC(=O)O)C(=O)N[C@@H](CCCCNC(=O)CCC(C(=O)O)N1CCN(CC(=O)O)CCN(CC(=O)O)CC1)C(N)=O (some centres unmarked) [CL1-F1] (H-EEAVK(NODAGA)-NH2)
0.03
